System: Mycobacterium tuberculosis
method: Antimycobacterial activity against Mycobacterium tuberculosis H37Rv ATCC 27294 assessed as inhibition of mycobacterial growth incubated for 2 weeks by MABA method
Type: functional
-logMIC overview

>>> print(df.to_string())
                                   compound  result
0  COc1cc(C[C@@H](C)[C@@H](C)Cc2ccc(OC(C)=O)c(OC)c2)ccc1O (racemic)    4.07
1  COc1cc(C[C@@H](C)[C@@H](C)Cc2ccc(OC)c(OC)c2)ccc1O (racemic)    3.94
2  CCCCCCCCCCCCCCCC(=O)Oc1ccc(C[C@@H](C)[C@@H](C)Cc2ccc(OC(=O)CCCCCCCCCCCCCCC)c(OC)c2)cc1OC    4.02

Provide one value: measured -logMIC of COc1cc(C[C@@H](C)[C@@H](C)Cc2ccc(OC(=O)c3ccccc3[N+](=O)[O-])c(OC)c2)ccc1O (racemic)
3.94
